Target: human A3AR (Homo sapiens, UniProt P0DMS8)
Construct: expressed in transfected cells
Sequence (P0DMS8 whole entry): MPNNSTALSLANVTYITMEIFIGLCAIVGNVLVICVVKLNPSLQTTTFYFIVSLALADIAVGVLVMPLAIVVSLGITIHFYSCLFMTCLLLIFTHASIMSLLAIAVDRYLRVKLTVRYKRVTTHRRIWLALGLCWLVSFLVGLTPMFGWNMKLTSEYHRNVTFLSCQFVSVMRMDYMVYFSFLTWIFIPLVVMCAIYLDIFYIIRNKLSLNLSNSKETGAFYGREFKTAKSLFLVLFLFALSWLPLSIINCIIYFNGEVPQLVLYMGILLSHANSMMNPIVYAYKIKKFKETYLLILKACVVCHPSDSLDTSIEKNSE
Assay: LOPAC library primary screen: single concentration (10 μM) inhibition of 25 nM CA200645 binding, PHERAstar FS

>  <compound>
Clc1ccc(N2C[C@H]3CC[C@@H](C2)N3)nn1 [DBO-83]

>  <test_target>
human A3AR (Homo sapiens, UniProt P0DMS8)

>  <% 25 nM CA200645 binding [%]>
97.7

$$$$
>  <compound>
CN1C[C@H](O)[C@@H](O)[C@H](O)[C@H]1CO [N-Methyl-1-deoxynojirimycin]

>  <test_target>
human A3AR (Homo sapiens, UniProt P0DMS8)

>  <% 25 nM CA200645 binding [%]>
100.7

$$$$
>  <compound>
Cc1cc(N)c2ccccc2[n+]1CCCCCCCCCC[n+]1c(C)cc(N)c2ccccc21.[Cl-].[Cl-] [Dequalinium chloride hydrate]

>  <test_target>
human A3AR (Homo sapiens, UniProt P0DMS8)

>  <% 25 nM CA200645 binding [%]>
86.1

$$$$
>  <compound>
C/C=C(/C)C(=O)O[C@H]1C(C)=C2[C@H]([C@@H]1OC(=O)CCCCCCC)[C@@](C)(OC(C)=O)C[C@H](OC(=O)CCC)[C@@]1(O)[C@H]2OC(=O)[C@@]1(C)O [Thapsigargin]

>  <test_target>
human A3AR (Homo sapiens, UniProt P0DMS8)

>  <% 25 nM CA200645 binding [%]>
65.1

$$$$
>  <compound>
Nc1ccc(CCNc2ncnc3c2ncn3[C@@H]2O[C@H](CO)[C@@H](O)[C@H]2O)cc1 [N6-2-(4-Aminophenyl)ethyladenosine]

>  <test_target>
human A3AR (Homo sapiens, UniProt P0DMS8)

>  <% 25 nM CA200645 binding [%]>
41.0

$$$$
>  <compound>
c1ccc2c(c1)[I+]c1ccccc1-2 [Diphenyleneiodonium chloride]

>  <test_target>
human A3AR (Homo sapiens, UniProt P0DMS8)

>  <% 25 nM CA200645 binding [%]>
92.7

$$$$
>  <compound>
COC1=C(OC)C(=O)c2ccccc2C1=O [2,3-Dimethoxy-1,4-naphthoquinone]

>  <test_target>
human A3AR (Homo sapiens, UniProt P0DMS8)

>  <% 25 nM CA200645 binding [%]>
99.3

$$$$

Where do the numbers come from? From paper PMC5733478.
